Hey, just so you know, these numbers are from patent US20090136495A1.

Below, each entry is listed alongside its reported kon.
MEASURED_ON: T1, human hepcidin-25 (human, not fully specified)
T1 construct: also called human mature hepcidin
T1 peptide: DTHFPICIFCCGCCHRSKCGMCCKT
ASSAY_PROTOCOL: SPR (BIAcore), Mab captured on protein A, human hepcidin-25 injected, 25 C
# value in M⁻¹ s⁻¹; strip the unit string

Worked cases, answers included:
>  <BINDER>
Mab L1.5 (antibody, human IgG4 S228P, kappa, V domains shown) VH: QVQLVQSGAEVKKPGSSVKVSCKASGYTFLIYPISWVRQAPGQGLEWMGNFHPYLGVTNYLEKFKGRVTITADKSTSTAYMELSSLRSEDTAVYYCARGGTGSFDYWGQGTTVTVSS VL: DIQMTQSPSSLSASVGDRVTITCSAESRVSSTYLFWYQQKPGKAPKLLIYRTSPLASGVPSRFSGSGSGTDFTLTISSLQPEDFATYYCQQWSGYPFTFGGGTKVEIKR

>  <READOUT_UNITS>
M⁻¹ s⁻¹

>  <kon>
5.31e+06

$$$$
>  <BINDER>
Mab 3.8 (antibody, human IgG4, V domains shown, Human engineered Mab, human IgG4) VH: QVQLVQSGAEVKKPGSSVKVSCKASGYTFLIYPISWVRQAPGQGLEWMGNFHPYLGVTNYLEKFKGRVTITADKSTSTAYMELSSLRSEDTAVYYCARGGTGSFDYWGQGTTVTVSS VL: DIQMTQSPSSLSASVGDRVTITCSASSRVSSTYLFWYQQKPGKAPKLLIYRTSPLASGVPSRFSGSGSGTDFTLTISSLQPEDFATYYCQQWSGYPFTFGGGTKVEIKR

>  <READOUT_UNITS>
M⁻¹ s⁻¹

>  <kon>
5.58e+06

$$$$

(Q) I'd like to know its kon. The binder in question is Mab Hu22 (antibody, human IgG4 S228P, kappa, V domains shown) VH: QVQLVQSGAEVKKPGSSVKVSCKASGYTFTIYPISWVRQAPGQGLEWMGNFHPYLGDTNYNEKFKGRVTITADKSTSTAYMELSSLRSEDTAVYYCARGGTGSFDYWGQGTTVTVSS VL: DIQMTQSPSSLSASVGDRVTITCSASSRVSSTYLFWYQQKPGKAPKLLIYRTSTLASGVPSRFSGSGSGTDFTLTISSLQPEDFATYYCQQWSGYPFTFGGGTKVEIKR
(A) 1.09e+07
